system: CYP2D6; experiment: Fraction unbound in human liver microsomes containing CYP2D6 after 60 mins; type: ADME
resultType: fraction unbound at 1 h
API doc: respond with a numeric literal and nothing else, no unit.

So what's the measured fraction unbound at 1 h for this one? CS(=O)(=O)O.Cc1ccc(NC(=O)c2ccc(CN3CCNCC3)cc2)cc1Nc1nccc(-c2cccnc2)n1 0.8

* * *

test system: CYP3A4; assay: Fraction unbound in human liver microsomes containing CYP3A4 after 60 mins; assay type: ADME
resultType: fraction unbound at 1 h
API doc: respond with a numeric literal and nothing else, no unit.

So what's the measured fraction unbound at 1 h for this one? CS(=O)(=O)O.Cc1ccc(NC(=O)c2ccc(CN3CCNCC3)cc2)cc1Nc1nccc(-c2cccnc2)n1 0.8

* * *

system: CYP1A2; test: Fraction unbound in human liver microsomes containing CYP1A2 after 60 mins; assay type: ADME
resultType: fraction unbound at 1 h
API doc: respond with a numeric literal and nothing else, no unit.

Lookup: fraction unbound at 1 h / CYP1A2 / CS(=O)(=O)O.Cc1ccc(NC(=O)c2ccc(CN3CCNCC3)cc2)cc1Nc1nccc(-c2cccnc2)n1 0.8

* * *

assay: Cmax in chronic myeloid leukemia patient at 400 mg, qd by multiple dose study; assay type: ADME, organism-based; design: dose 400 mg; settings: human, in vivo
resultType: Cmax (ng/mL)
Number in ng/mL, nothing else.

So what's the measured Cmax for this one? CS(=O)(=O)O.Cc1ccc(NC(=O)c2ccc(CN3CCN(C)CC3)cc2)cc1Nc1nccc(-c2cccnc2)n1 [IMATINIB MESYLATE] 2200

* * *

tested on: CYP3A5; experiment: Fraction unbound in human liver microsomes containing CYP3A5 after 60 mins; type: ADME
resultType: fraction unbound at 1 h
API doc: respond with a numeric literal and nothing else, no unit.

So what's the measured fraction unbound at 1 h for this one? CS(=O)(=O)O.Cc1ccc(NC(=O)c2ccc(CN3CCNCC3)cc2)cc1Nc1nccc(-c2cccnc2)n1 0.8
